Molecular target: T1, mouse big-ET-1 (mouse)
T1 construct: also called mBig-ET-1
T1 peptide: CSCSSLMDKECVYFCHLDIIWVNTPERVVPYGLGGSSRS
Test: SPR (Biacore T200), 37 C, mAb capture, peptide analyte
Field: pKd. Provide a value for each of the binders that follow.
Numbers only, as −log10 of the molar value.

Use the examples below as a reference point.
BINDER | pKd
H4H6323P (antibody, V domains shown, Human IgG4 Fc (prefix H4H)) VH: QITLKESGPPLVKPTQTLTLTCTFSGFSLNTNGMGVGWIRQPPGKALEWLTLIYWNDDKRYSPSLKTRLTITKDTSKNQVVLTMTNMDPVDTATYYCARFGSGTYWGQGTLVTVSS VL: DIVMTQSPLSLPVTPGEPASISCRSSQSLLHSYGYNFLDWFLQKPGQSPQLLIYLGSHRASGVPDRFSGSGSGTDFTLKISRVEAEDVGVYYCMQALQTPLTFGGGTKVEIK | 7.48
H4H6330P (antibody, V domains shown, Human IgG4 Fc (prefix H4H)) VH: EVQLVESGGGLVQPGGSLRLSCAASGFTFSNYAMSWVRQAPGKGLEWVSAVSGSGVGTYYADSVKGRFTISRDNSKNTLYLQMKSLSAEDTALYYCTKTLGGTHAFDIWGQGTMVTVSS VL: DIQMTQSPSTLSASVGDRVTITCRASQSISRWLAWYQQKPGKAPKLLIYKASSLESGVPSRFSGSGSGTEFTVTINSLQPDDFATYYCQQYNSYSSFGQGTKLEIK | 7.30
H4H6353P (antibody, V domains shown, Human IgG4 Fc (prefix H4H)) VH: EVQLVESGGGLVKPGGSLRLSCAASGFSFNYAWMSWVRQAPGKGLEWIGRIKSKINGGTTDYTAPVKGRFTISRDDSKNTLYLQMNSLKTEDTAVYYCRGDEDFWGQGTLVTVSS VL: DVVMTQSPLSLPVTLGQPASISCRSSQSLVYSDGFTYLNWFRQRPGQSPRRLIYKVSNRDSGVPDRFSGSGSGTDFTLRISRVEAEDVGIYYCMQGTHWPYTFGQGTKLEIK | 6.10

Please turn your attention to the following entry.
The binder listed as H4H6329P (antibody, V domains shown, Human IgG4 Fc (prefix H4H)) VH: QVQLVESGGGVVQPGRSLRLSCAASGFTFGSYGMHWVRQAPGKGLEWVAVIWYDGSDEYYTDSVKGRFTVSRDNSKYTLYLQMNSLRADDTAVYYCARDGYRTRGNYFDYWGQGTLVTVSS VL: DVVMTQSPLSLPVALGQPASISCRSSQSLVYSDGNTYLNWFQQRPGQSPRRLIYKVSNRDSGVPDRFGGSGSGTDFTLKISRVEAEDVGLYYCMQGTHWPPTFGGGTKVEIK shows pKd equal to 7.72

Numbers sourced from patent US20130216547A1.
